TARGET_OR_SYSTEM: CYP3A4 (Homo sapiens)
PROCEDURE_DETAILS: Spectral binding titrations (equilibrium ligand binding, type II spectral change)
Set-up: Codon-optimized full-length and Δ3–22 human CYP3A4 were produced as reported previously [45] and used for assays and crystallization, respectively; made in house
CONDITION_LABEL: maximal absorbance change (peak/trough in difference spectrum) relative to that induced by ritonavir
VALUE_TYPE: ΔAmax (%)
Numeric only. Scale: %

- COMPOUND: "CC(C)(C)OC(=O)N[C@@H](CS[C@H](Cc1ccccc1)C(=O)NCCCc1cccnc1)Cc1cccc2ccccc12"
  ΔAmax [%]: 114

GET /values?readout=ΔAmax&system=CYP3A4 (Homo sapiens)&item= CC(C)(C)OC(=O)NC(CSC(Cc1ccccc1)C(=O)NCCCc1cccnc1)Cc1cccc2ccccc12 (stereo not shown)
111

Now consider CC(C)(C)OC(=O)N[C@H](CS[C@@H](Cc1ccccc1)C(=O)NCCCc1cccnc1)Cc1cccc2ccccc12 and answer again.
112

Now consider CC(C)(C)OC(=O)NC(CSCC(Nc1ccccc1)C(=O)NCCCc1cccnc1)Cc1ccccc1 (stereo not shown) and answer again.
114

Now consider CC(C)(C)OC(=O)N[C@H](CS[C@H](Cc1ccccc1)C(=O)NCCCc1cccnc1)Cc1c[nH]c2ccccc12 and answer again.
125

Now consider CC(C)(C)OC(=O)NC(CSC(Cc1ccccc1)C(=O)NCCOCc1cccnc1)Cc1ccccc1 (stereo not shown) and answer again.
113

Now consider CC(C)(C)OC(=O)NC(CSC(Cc1ccccc1)C(=O)NCCCc1cccnc1)Cc1ccccc1 (stereo not shown) and answer again.
111

###

TARGET_OR_SYSTEM: CYP3A4 (Homo sapiens, UniProt P08684)
Sequence (P08684 whole entry): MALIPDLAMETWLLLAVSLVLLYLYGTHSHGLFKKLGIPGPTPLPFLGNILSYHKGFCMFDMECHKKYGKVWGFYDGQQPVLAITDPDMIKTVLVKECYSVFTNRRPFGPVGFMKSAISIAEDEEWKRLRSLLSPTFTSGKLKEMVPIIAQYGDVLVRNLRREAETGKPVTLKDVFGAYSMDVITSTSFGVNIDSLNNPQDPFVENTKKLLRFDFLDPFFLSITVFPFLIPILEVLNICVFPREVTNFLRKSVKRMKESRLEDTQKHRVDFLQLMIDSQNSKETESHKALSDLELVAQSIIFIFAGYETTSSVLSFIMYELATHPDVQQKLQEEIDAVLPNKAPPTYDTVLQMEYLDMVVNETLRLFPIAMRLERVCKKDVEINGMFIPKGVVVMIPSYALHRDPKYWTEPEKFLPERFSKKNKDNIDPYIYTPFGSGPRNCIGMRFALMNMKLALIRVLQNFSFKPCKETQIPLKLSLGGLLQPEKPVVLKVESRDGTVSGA
VALUE_TYPE: IC50 (µM)
Numeric only. Scale: µM

In the examples that follow, each entry is paired with its recorded IC50.
- COMPOUND: "CC(C)(C)OC(=O)NC(CSC(Cc1ccccc1)C(=O)NCCCc1cccnc1)Cc1ccccc1 (centres unmarked) [Compound 3a]"
  RESULT: 0.16
- COMPOUND: "CC(C)(C)OC(=O)N[C@H](CS[C@@H](Cc1ccccc1)C(=O)NCCCc1cccnc1)Cc1cccc2ccccc12"
  RESULT: 0.09
- COMPOUND: "CC(C)(C)OC(=O)NC(CSC(Cc1ccccc1)C(=O)NCCOCc1cccnc1)Cc1ccccc1 (centres unmarked)"
  RESULT: 0.73

Which measured IC50 value corresponds to CC(C)(C)OC(=O)NC(CSC(Cc1ccccc1)C(=O)NCCCc1cccnc1)Cc1ccccc1 (centres unmarked) [Compound 3b] ?
0.3

Now consider CC(C)(C)OC(=O)N[C@@H](CS[C@H](Cc1ccccc1)C(=O)NCCCc1cccnc1)Cc1cccc2ccccc12 and answer again.
0.15

###

TARGET_OR_SYSTEM: CYP3A4 (Homo sapiens)
PROCEDURE_DETAILS: H2O2-dependent heme depletion assay
Set-up: Codon-optimized full-length and Δ3–22 human CYP3A4 were produced as reported previously [45] and used for assays and crystallization, respectively; made in house
CONDITION_LABEL: 1.6 μM CYP3A4, 16 μM inhibitor, 10 mM H2O2, 120 min, relative to ligand-free CYP3A4 (100% decay)
VALUE_TYPE: % decay (heme destroyed at the end of the reaction) (%)
Numeric only. Scale: %

- COMPOUND: "CC(C)(C)OC(=O)NC(CSC(Cc1ccccc1)C(=O)NCCCc1cccnc1)Cc1cccc2ccccc12 (stereo not shown) [Compound 3f]"
  RESULT: 15

Which measured % decay (heme destroyed at the end of the reaction) value corresponds to CC(C)(C)OC(=O)NC(CSC(Cc1ccccc1)C(=O)NCCCc1cccnc1)Cc1ccccc1 (stereo not shown) [Compound 3b] ?
26

Now consider CC(C)(C)OC(=O)NC(CSCC(Nc1ccccc1)C(=O)NCc1cccnc1)Cc1cccc2ccccc12 (stereo not shown) [Compound 5b, reference compound] and answer again.
25

Now consider CC(C)(C)OC(=O)NC(CSC(Cc1ccccc1)C(=O)NCCCc1cccnc1)Cc1cccc2ccccc12 (stereo not shown) [Compound 3g] and answer again.
22

Taken from paper PMC7830545.
